Each item that follows carries a reported Dmax.
- TARGET_OR_SYSTEM: BRAF V600E (Homo sapiens, UniProt P15056, V600E)
- Construct: endogenous C-terminal HiBiT fusion tag on BRAF V600E allele; endogenous in cells; host or cells: A375 clone 1F10 (CRISPR-Cas9 knock-in of the HiBiT tag; parental A375 from ATCC)
- Sequence (P15056 whole entry V600E, the tested form may be a part): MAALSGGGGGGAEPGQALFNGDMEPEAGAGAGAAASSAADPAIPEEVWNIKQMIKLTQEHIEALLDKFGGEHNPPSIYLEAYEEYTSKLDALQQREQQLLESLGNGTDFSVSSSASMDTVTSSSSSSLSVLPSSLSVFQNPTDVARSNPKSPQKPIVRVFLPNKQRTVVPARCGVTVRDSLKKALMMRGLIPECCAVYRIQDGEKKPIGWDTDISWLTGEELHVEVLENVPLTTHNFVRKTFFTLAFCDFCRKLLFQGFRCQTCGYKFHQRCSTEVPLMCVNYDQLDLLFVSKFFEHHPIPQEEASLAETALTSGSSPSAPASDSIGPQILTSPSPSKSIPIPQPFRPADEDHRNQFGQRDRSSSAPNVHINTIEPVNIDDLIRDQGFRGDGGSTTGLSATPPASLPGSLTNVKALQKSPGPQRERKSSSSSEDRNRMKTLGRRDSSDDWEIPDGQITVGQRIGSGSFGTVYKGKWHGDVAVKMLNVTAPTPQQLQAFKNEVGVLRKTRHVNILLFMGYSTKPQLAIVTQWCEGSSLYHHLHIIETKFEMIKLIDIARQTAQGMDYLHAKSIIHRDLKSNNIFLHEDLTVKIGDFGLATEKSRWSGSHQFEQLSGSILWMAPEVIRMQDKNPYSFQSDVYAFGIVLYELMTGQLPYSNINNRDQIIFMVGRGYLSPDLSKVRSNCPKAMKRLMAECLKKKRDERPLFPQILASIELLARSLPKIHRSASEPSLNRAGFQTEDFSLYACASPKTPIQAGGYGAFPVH
- EXPERIMENTAL_DETAILS: BRAF HiBiT degradation assay, C-terminal HiBiT-tagged BRAF V600E A375 cells (clone 1F10), Nano-Glo HiBiT Lytic assay
- Assay type: cell-based
- ASSAY_CONDITIONS: A-375; A375 (BRAF V600E); percentage protein degraded at maximal compound effect relative to DMSO
- Method: An A375 cell line expressing a homozygous V600E mutation was purchased from ATCC (Manassas, VA, USA). […] HiBiT signal was measured by a Nano-Glo HiBiT Lytic assay (Promega cat. no. N3050). […] Luminesce units (LU) were read on an EnVision plate reader 2105 (Perkin Elmer). Percent protein remaining and viability remaining per sample were calculated as follows: […]

[
  {
    "COMPOUND": "CCCS(=O)(=O)Nc1cccc(-c2cn(-c3ccc(N4CCN(CC5CCN(c6ccc([C@H]7CCC(=O)NC7=O)cn6)CC5)CC4)cc3)nc2-c2ccncc2)c1F",
    "MEASURE_NAME": "Dmax",
    "VALUE": "> 70%"
  }
]

Record CCCS(=O)(=O)Nc1cccc(-c2nc(C(C)(C)C)sc2-c2ccnc(Nc3ccc(C4CCN(CC5CCN(c6ccc(C7CCC(=O)NC7=O)cc6)CC5)CC4)cc3)n2)c1F (racemic) , field Dmax: 30 to 70%

Record CCCS(=O)(=O)Nc1cccc(-c2nc(C(C)(C)C)sc2-c2ccnc(Nc3ccc(C4CCN(C(=O)C5CCN(c6cccc7c6n(C)c(=O)n7C6CCC(=O)NC6=O)CC5)CC4)cc3)n2)c1F (racemic) , field Dmax: 30 to 70%

Record CCCS(=O)(=O)Nc1cccc(-c2nc(C(C)(C)C)sc2-c2ccnc(Nc3cccc(C4CCN(C(=O)CN5CCC(c6ccc(NC7CCC(=O)NC7=O)cc6)CC5)CC4)c3)n2)c1F (racemic) , field Dmax: 30 to 70%

Record CCCS(=O)(=O)Nc1cccc(-c2nc(C(C)(C)C)sc2-c2ccnc(Nc3ccc4c(c3)CCN(C(=O)CN3CCN(c5cc(C6CCC(=O)NC6=O)ccn5)CC3)C4)n2)c1F (racemic) , field Dmax: 30 to 70%
